# Lookup of reported pIC50 keyed by entry
- Tgt: EBI2 (Homo sapiens)
- Sequence (P32249 whole entry): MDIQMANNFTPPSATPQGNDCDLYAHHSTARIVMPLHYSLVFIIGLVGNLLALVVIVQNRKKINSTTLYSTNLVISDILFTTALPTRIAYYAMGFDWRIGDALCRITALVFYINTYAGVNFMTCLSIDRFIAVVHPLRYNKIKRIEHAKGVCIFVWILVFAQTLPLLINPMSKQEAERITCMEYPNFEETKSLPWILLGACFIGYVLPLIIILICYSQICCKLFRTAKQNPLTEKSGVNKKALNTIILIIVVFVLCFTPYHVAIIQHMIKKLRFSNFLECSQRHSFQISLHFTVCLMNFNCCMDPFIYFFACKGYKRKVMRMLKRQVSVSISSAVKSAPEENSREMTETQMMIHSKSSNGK
- Method Summary: Cell-based luminescent assay of EBI2 modulation (7a,25-OHC stimulated)
- Condition Info: 7a,25-OHC final assay concentration 80 nM, 60 minute incubation
pIC50: −log10 of the molar value.

Supply measured pIC50 of `COc1ccc(C(=O)N2CCC3(CC2)CN(C(=O)C#Cc2ccc(F)cc2F)C3)cc1` in your reply.
6.30 to 7.00

Supply measured pIC50 of `O=C(/C=C/c1ccc(Br)cc1)N1CCC2(CC1)CN(C(=O)c1ccccc1)C2` in your reply.
> 7.00

Supply measured pIC50 of `O=C(/C=C/c1ccc(Br)cc1)N1CC2(CCN(Cc3ccc(Cl)cc3)CC2)C1` in your reply.
6.30 to 7.00

Supply measured pIC50 of `O=C(c1cc2cc(Br)ccc2[nH]1)N1CC2(CCN(C(=O)c3ccc(F)cc3C(F)(F)F)CC2)C1` in your reply.
> 7.00

Supply measured pIC50 of `O=C(/C=C/c1ccc(Br)cc1)N1CC2(CCN(Cc3cc(C(F)(F)F)cc(C(F)(F)F)c3)CC2)C1` in your reply.
6.30 to 7.00
